Origin of measurements: ChEMBL document CHEMBL1123502

TARGET_OF_ASSAY: Polyunsaturated fatty acid 5-lipoxygenase (Rattus norvegicus, UniProt P12527)
Sequence (P12527 whole entry): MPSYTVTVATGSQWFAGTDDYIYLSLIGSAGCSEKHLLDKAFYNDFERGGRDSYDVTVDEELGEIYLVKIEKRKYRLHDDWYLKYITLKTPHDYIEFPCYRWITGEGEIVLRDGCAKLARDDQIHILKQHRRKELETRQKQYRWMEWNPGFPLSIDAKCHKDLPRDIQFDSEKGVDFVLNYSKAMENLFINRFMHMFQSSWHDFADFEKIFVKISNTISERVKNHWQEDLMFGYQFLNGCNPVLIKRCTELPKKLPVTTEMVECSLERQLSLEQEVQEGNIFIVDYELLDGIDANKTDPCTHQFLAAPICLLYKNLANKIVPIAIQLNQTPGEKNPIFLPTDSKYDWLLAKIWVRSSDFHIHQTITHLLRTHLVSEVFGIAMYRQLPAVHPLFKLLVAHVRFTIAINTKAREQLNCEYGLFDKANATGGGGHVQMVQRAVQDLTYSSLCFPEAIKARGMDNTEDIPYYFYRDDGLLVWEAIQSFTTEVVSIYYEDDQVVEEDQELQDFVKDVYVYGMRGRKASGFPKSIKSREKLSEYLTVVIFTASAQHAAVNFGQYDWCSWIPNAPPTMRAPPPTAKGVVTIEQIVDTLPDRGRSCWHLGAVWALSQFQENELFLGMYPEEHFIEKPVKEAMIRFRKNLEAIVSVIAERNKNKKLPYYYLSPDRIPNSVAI
METHOD_DESCRIPTION: Inhibition of rat polymorphonuclear leukocyte (PMN) 5-Lipoxygenase in vitro
Recorded IC50 values for a group of molecules are listed next.
Express it in µM; write the number only.

Consider the following illustrative entries.
SMILES_STRUCTURE: COC(=O)C(=O)Nc1cccc(OCc2ccc3ccccc3c2)c1
MEASURED_VALUE: 6.9
--
SMILES_STRUCTURE: COC(=O)CCNC(=O)c1cccc(OCc2ccc3ccccc3n2)c1
MEASURED_VALUE: 35.2
--
SMILES_STRUCTURE: COC(=O)CCC(=O)Nc1cccc(OCc2ccc3ccccc3c2)c1
MEASURED_VALUE: 3.2
--
SMILES_STRUCTURE: COC(=O)CCC(=O)Nc1cccc(Oc2ccc3ccccc3n2)c1
MEASURED_VALUE: 26
--
SMILES_STRUCTURE: COC(=O)CCC(=O)Nc1ccccc1OCc1ccc2ccccc2c1
MEASURED_VALUE: 86.2
--
SMILES_STRUCTURE: COC(=O)CCNC(=O)c1cccc(OCc2ccc3ccccc3c2)c1
MEASURED_VALUE: 29.5

Look up IC50: COC(=O)CCC(=O)N(O)c1cccc(OCc2ccc3ccccc3c2)c1
0.6

###

METHOD_DESCRIPTION: In vivo inhibition of LTD4-induced bronchospasm in guinea pig at dose of 50 mg/kg
TEST_PARAMETERS: Cavia porcellus
READOUT_KIND: inhibition (%)
Return type: number; implicit unit %.

Field: example entries. Status: answers known.
SMILES_STRUCTURE: COC(=O)CCC(=O)Nc1ccc(OCc2ccc3ccccc3c2)cc1
READOUT_KIND: inhibition
MEASURED_VALUE: 12
//
SMILES_STRUCTURE: COC(=O)CCNC(=O)c1cccc(OCc2ccc3ccccc3n2)c1
READOUT_KIND: inhibition
MEASURED_VALUE: -3

State the recorded inhibition for this entry: COC(=O)CCC(=O)Nc1cccc(Oc2ccc3ccccc3n2)c1
29

Try this molecule too: COC(=O)CCNC(=O)c1cccc(COc2ccc3ccccc3c2)c1
-6

Subsequent entry: COC(=O)CCC(=O)N(O)c1cccc(COc2ccc3ccccc3c2)c1
5

Queued: COC(=O)CCC(=O)Nc1cc(OCc2ccc3ccccc3n2)ccc1C
23

###

METHOD_DESCRIPTION: In vivo inhibition of LTD4-induced bronchospasm in guinea pig at dose of 50 mg/kg
TEST_PARAMETERS: Cavia porcellus
READOUT_KIND: inhibition (%)
Give the value, in units of %, as a plain number.

SMILES_STRUCTURE: COC(=O)CCC(=O)N(C)c1cccc(OCc2ccc3ccccc3n2)c1
READOUT_KIND: inhibition
UNIT_SPEC: %
MEASURED_VALUE: 48
--
SMILES_STRUCTURE: COC(=O)CCCC(=O)Nc1cccc(OCc2ccc3ccccc3c2)c1
READOUT_KIND: inhibition
UNIT_SPEC: %
MEASURED_VALUE: 5
--
SMILES_STRUCTURE: COC(=O)C(=O)Nc1cccc(OCc2ccc3ccccc3n2)c1
READOUT_KIND: inhibition
UNIT_SPEC: %
MEASURED_VALUE: -2

Reported inhibition for COC(=O)CCC(=O)Nc1cccc(OCc2ccc3ccc(C)cc3n2)c1 : what is it?
-6.1

Another: CCOC(=O)CCC(=O)Nc1cccc(OCc2ccc3ccccc3n2)c1
95
